molecular target: human GCGR (hGCGR) (Homo sapiens, UniProt P47871); construct: expressed in transfected cells; assay: Inhibition of 125I-glucagon binding to hGCGR in membranes of CHO cells expressing hGCGR; conditions: CHO cell membranes
Sequence (P47871 26-477): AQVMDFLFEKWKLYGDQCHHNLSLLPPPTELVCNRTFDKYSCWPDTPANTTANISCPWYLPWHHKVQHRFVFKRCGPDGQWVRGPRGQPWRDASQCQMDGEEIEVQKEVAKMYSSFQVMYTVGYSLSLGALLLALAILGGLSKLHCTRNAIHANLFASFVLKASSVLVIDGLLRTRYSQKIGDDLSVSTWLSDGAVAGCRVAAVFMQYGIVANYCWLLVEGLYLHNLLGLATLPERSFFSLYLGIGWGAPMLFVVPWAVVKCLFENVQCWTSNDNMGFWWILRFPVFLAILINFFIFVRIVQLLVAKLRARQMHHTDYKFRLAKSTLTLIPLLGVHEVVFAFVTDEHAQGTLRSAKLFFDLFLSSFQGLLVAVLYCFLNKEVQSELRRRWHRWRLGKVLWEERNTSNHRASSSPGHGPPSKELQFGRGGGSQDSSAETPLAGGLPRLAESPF
TEST READOUT: pIC50
Lab note: report pIC50 as minus log10 of the concentration in molar units, number only.

Please report the recorded pIC50 for COc1ccc2cc(-c3cc(-c4cc(C(F)(F)F)ccc4F)nn3[C@@H](C)c3ccc(C(=O)NCCC(=O)O)cc3)ccc2c1 .
8.40

* * *

target: GLP-1R (GLP-1 receptor) (Homo sapiens); assay: Inhibition of GLP-1-stimulated cAMP production in CHO cells expressing GLP-1R; settings: human GLP-1R
Sequence (P43220 24-463): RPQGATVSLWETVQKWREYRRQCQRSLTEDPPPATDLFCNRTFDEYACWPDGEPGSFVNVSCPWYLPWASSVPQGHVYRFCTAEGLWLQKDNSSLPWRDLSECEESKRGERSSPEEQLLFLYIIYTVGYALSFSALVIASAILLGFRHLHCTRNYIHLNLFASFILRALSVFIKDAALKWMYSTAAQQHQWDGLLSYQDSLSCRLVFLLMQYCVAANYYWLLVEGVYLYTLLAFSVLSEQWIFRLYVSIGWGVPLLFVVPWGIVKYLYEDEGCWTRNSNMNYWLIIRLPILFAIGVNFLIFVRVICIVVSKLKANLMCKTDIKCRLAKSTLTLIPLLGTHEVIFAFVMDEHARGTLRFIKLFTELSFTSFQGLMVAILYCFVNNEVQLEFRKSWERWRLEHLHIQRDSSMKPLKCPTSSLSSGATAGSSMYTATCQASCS
TEST READOUT: IC50 (µM)
# value in µM; strip the unit string

Entry under review: COc1ccc2cc(-c3cc(-c4cc(C(F)(F)F)ccc4F)nn3[C@@H](C)c3ccc(C(=O)NCCC(=O)O)cc3)ccc2c1 . Reported IC50?
7.9

* * *

assay: Pharmacokinetics / plasma GRA1 concentrations in hGCGR mice; format: in vivo; conditions: mouse, oral, 30 mg/kg p.o., 1 h postdose (glucagon challenge)
TEST READOUT: concentration at 1 h (µM)
# unit: µM | format: bare number

Field request: concentration at 1 h | item: COc1ccc2cc(-c3cc(-c4cc(C(F)(F)F)ccc4F)nn3[C@@H](C)c3ccc(C(=O)NCCC(=O)O)cc3)ccc2c1
4.7

* * *

test: Pharmacokinetics / plasma GRA1 concentrations in hGCGR mice; format: in vivo; conditions: mouse, single oral 3 mg/kg, 5 h postdose (occupancy experiment)
TEST READOUT: concentration at 5 h (µM)
# unit: µM | format: bare number

Would you kindly share the measured concentration at 5 h for COc1ccc2cc(-c3cc(-c4cc(C(F)(F)F)ccc4F)nn3[C@@H](C)c3ccc(C(=O)NCCC(=O)O)cc3)ccc2c1 [GRA1] ?
0.5

* * *

target: mouse GCGR (Mus musculus, UniProt Q61606); experiment: Inhibition of glucagon-stimulated cAMP production in CHO cells expressing mouse GCGR
Sequence (Q61606 27-485): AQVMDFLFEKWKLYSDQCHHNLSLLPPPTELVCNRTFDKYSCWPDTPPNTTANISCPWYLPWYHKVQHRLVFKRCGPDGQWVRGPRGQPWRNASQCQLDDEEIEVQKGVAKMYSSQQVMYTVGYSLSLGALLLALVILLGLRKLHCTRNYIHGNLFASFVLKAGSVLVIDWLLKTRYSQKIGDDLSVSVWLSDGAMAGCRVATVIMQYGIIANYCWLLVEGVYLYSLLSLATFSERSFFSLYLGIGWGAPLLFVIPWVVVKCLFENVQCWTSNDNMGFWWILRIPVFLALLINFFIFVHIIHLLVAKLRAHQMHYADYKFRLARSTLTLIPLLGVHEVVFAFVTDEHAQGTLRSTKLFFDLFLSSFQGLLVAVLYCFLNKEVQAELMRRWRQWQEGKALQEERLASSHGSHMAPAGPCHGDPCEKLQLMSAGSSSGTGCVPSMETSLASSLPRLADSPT
TEST READOUT: IC50 (nM)
Lab book: enter the figure in nM, no units written.

Given COc1ccc2cc(-c3cc(-c4cc(C(F)(F)F)ccc4F)nn3[C@@H](C)c3ccc(C(=O)NCCC(=O)O)cc3)ccc2c1 , state its recorded IC50.
178

* * *

target: PAC1R (pituitary adenylate cyclase-activating polypeptide receptor type 1) (Homo sapiens, UniProt P41586); experiment: Inhibition of agonist-stimulated cAMP production in CHO cells expressing PAC1R; settings: PAC1-stimulated
Sequence (P41586 21-468): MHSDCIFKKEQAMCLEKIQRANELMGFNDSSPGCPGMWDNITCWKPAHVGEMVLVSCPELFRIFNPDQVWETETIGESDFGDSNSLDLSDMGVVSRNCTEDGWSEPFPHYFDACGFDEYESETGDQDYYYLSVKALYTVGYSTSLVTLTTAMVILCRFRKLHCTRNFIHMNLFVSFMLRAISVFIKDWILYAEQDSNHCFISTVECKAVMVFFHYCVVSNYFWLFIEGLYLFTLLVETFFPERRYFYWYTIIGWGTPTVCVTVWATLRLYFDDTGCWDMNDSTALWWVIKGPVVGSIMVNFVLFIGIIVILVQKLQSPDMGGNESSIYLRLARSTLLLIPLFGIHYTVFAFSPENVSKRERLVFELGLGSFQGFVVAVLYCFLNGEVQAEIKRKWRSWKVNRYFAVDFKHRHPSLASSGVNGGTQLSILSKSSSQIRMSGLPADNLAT
TEST READOUT: IC50 (µM)
Please respond with the number in µM and leave the unit unwritten.

What value of measured IC50 is listed for COc1ccc2cc(-c3cc(-c4cc(C(F)(F)F)ccc4F)nn3[C@@H](C)c3ccc(C(=O)NCCC(=O)O)cc3)ccc2c1 ?
7.85

* * *

experiment: Pharmacokinetics / plasma GRA1 concentrations in rhesus monkeys; assay type: in vivo, rhesus monkey; details: rhesus monkey, plasma, oral, 1 mg/kg, 1 h postdose (glucagon challenge)
TEST READOUT: concentration at 1 h

Recorded concentration at 1 h of COc1ccc2cc(-c3cc(-c4cc(C(F)(F)F)ccc4F)nn3[C@@H](C)c3ccc(C(=O)NCCC(=O)O)cc3)ccc2c1 [GRA1] , please.
200 nM
